assay.name: yeast display, Sf9 membrane polyspecificity reagent, FACS + sequencing; frameworks hold sequencing errors
quantity.name: polyreactivity (PSR sort gate)

# query.sequence, data.value
data = [
    ("QVQLVESAGGLVQAGGSLRLSCAASGRTFKYYAMGWYRQAPGKERELVAAITSTGGSTYYADSVKGRFTISRDNEKNTVYLQMNSLKPEDTAVYYCNRYTQYRDRSDNHWGQGTHVTVSS", "high polyreactivity"),
    ("QVQLVESGGGLVQAGGSLRLSCAASGRIFYYYAMGWYRQAPGKERELFADITWSGGSTYYADSVKGRFTISRDNAKNTVYLQMNSLKPEDTAVNYCNAVYFNYLLEYDYWGQGTQVTVSS", "high polyreactivity"),
]
